Numbers sourced from ChEMBL document CHEMBL1132503.

# target_desc: UniProt Q72547
# protocol_text: Inhibition of recombinant reverse transcriptase (RT) in cell-free Quan-T-RT assay system
quantity_measured: pIC50
// scale note: pIC50 = -log10(conc_M); give the bare number

Need pIC50, item `S=C(NCCc1cccs1)Nc1ccc(Br)cn1`
6.10

For the compound shown here, `S=C(NCCN1CCCC1)Nc1ccc(Br)cn1` , give the reported pIC50.
5.31

Sample `S=C(NCCc1c[nH]c2ccccc12)Nc1ccc(Br)cn1` — what was its pIC50?
6.05

Find the recorded pIC50 belonging to `S=C(NCCc1ccco1)Nc1ccc(Br)cn1` and report it.
5.92

So what does the record say about pIC50 for `S=C(NCCN1CCCCC1)Nc1ccc(Br)cn1` ?
6.22

Fill in: pIC50 of `S=C(NCCc1ccccn1)Nc1ccc(Br)cn1` is ___
6.22

Can you share its pIC50? I mean this compound: `S=C(NCCc1ccc2c(c1)OCO2)Nc1ccc(Br)cn1`
6.15

====

# protocol_text: Cytotoxic concentration was evaluated using microculture tetrazolium assay (MTA)
# Format: functional
# test_settings: Homo sapiens
quantity_measured: CC50

May I ask what CC50 has been recorded for CC(C)Nc1cccnc1N1CCN(C(=O)c2cc3cc(NS(C)(=O)=O)ccc3[nH]2)CC1 [DELAVIRDINE] ?
3.6 µM

Requested field: CC50. Item: `S=C(NCCc1cccs1)Nc1ccc(Br)cn1`
> 100 µM

Given the entry CCOCn1c(Cc2ccccc2)c(C(C)C)c(=O)[nH]c1=O [EMIVIRINE] , report its measured CC50.
> 100 µM

Please report the recorded CC50 for S=C(NCCc1ccccn1)Nc1ccc(Br)cn1 [TROVIRDINE] .
> 100 µM

# CC50 lookup, item Cc1ccnc2c1NC(=O)c1cccnc1N2C1CC1 [NEVIRAPINE]
10.5 µM

Could you share which CC50 value was measured for `S=C(NCCN1CCCCC1)Nc1ccc(Br)cn1` ?
> 100 µM

Look at this compound and give its reported CC50. Cc1cn([C@H]2C[C@H](N=[N+]=[N-])[C@@H](CO)O2)c(=O)[nH]c1=O [ZIDOVUDINE]
> 100 µM

====

# protocol_text: Ability to inhibit the replication of HTLV IIIb strain of HIV-1 p24 antigen production in PBMC
# Format: functional
# test_settings: Homo sapiens
pIC50: −log10 of the molar value.
Cut-off 8 on pIC50, inclusive. At or above means true; below means false.

Identify whether the reported pIC50 of the following compound is 8 or greater: `Cc1ccnc2c1NC(=O)c1cccnc1N2C1CC1`
false

API: above_or_equal(metric=pIC50, cutoff=8) for item `S=C(NCCc1cccs1)Nc1ccc(Br)cn1`
false

Could you tell me if the measured pIC50 of `S=C(NCCN1CCCCC1)Nc1ccc(Br)cn1` reaches 8 or more?
true

I'd appreciate it if you could say whether `Fc1ccccc1CC/N=C(\S)Nc1ccc(Br)cn1` has pIC50 at least equal to 8.
true

====

# protocol_text: Ability to inhibit the replication of RT-MDR (V106A) strain of HIV-1 p24 antigen production in PBMC
# Format: functional
# test_settings: Homo sapiens
Answer each item with its documented log10(IC50).
Values are log10 of IC50 in µM.

Which log10(IC50) is reported for this compound? `S=C(NCCc1cccs1)Nc1ccc(Br)cn1`
-2.40

State the recorded log10(IC50) for this entry: `Fc1ccccc1CC/N=C(\S)Nc1ccc(Br)cn1`
-2.30

What value of log10(IC50) has been recorded for this entry: Cc1cn([C@H]2C[C@H](N=[N+]=[N-])[C@@H](CO)O2)c(=O)[nH]c1=O [ZIDOVUDINE]
-0.70

What measured log10(IC50) goes with CCOCn1c(Cc2ccccc2)c(C(C)C)c(=O)[nH]c1=O [EMIVIRINE] ?
-0.57

Returns the measured log10(IC50) for the input compound. Input: CC(C)Nc1cccnc1N1CCN(C(=O)c2cc3cc(NS(C)(=O)=O)ccc3[nH]2)CC1 [DELAVIRDINE]
-0.40

# get_value(readout='log10(IC50)', item= Cc1ccnc2c1NC(=O)c1cccnc1N2C1CC1 [NEVIRAPINE] )
0.70

Returns the measured log10(IC50) for the input compound. Input: S=C(NCCc1ccccn1)Nc1ccc(Br)cn1 [TROVIRDINE]
-1.70
